Reference for the values: patent US20250154169A1

Tested on: MYB mRNA
assay-details: Splicing RT-qPCR assay, MYB canonical (CJ) and alternative (AJ) junction mRNA
Format: cell-based, human
assay-conditions: Homo sapiens, 24 h, A673 or K562 cells, 24 hours compound treatment, RT-qPCR; read-out: MYB CJ (IC50, decrease in canonical junction mRNA)
Structures can show the parent of a compound that is named as a salt.
measurement-type: IC50

// known answers, use as guide
[[record]]
compound = "COCCn1cc2c(N3C[C@@H](C)N[C@@H](C)C3)ccc(C(=O)Nc3cc(F)c4nc(C)cn4c3)c2n1"
reported_value = "0.1 to 1 µM"

[[record]]
compound = "Cc1cn2cc(NC(=O)c3ccc(N4CCNCC4)c4cn(C5COC5)nc34)cc(F)c2n1"
reported_value = "0.1 to 1 µM"

[[record]]
compound = "Cc1cn2cc(NC(=O)c3ccc(C4CCN(C)CC4)c4cn(C)nc34)cc(F)c2n1"
reported_value = "< 0.1 µM"

[[record]]
compound = "CCn1cc2c(NC3CCNCC3)ccc(C(=O)Nc3cc(F)c4nc(C)cn4c3)c2n1"
reported_value = "1 to 10 µM"


*Q* # return recorded IC50 for input Cn1cc2ccc(NC(=O)c3ccc(N4CCNCC4)c4cn(C)nc34)cc2n1
*A* > 10 µM

*Q* # return recorded IC50 for input CN[C@@H]1CCN(c2ccc(C(=O)Nc3cn4cc(C)nc4c(N(C)C)n3)c3nn(C)cc23)C1
*A* > 10 µM

*Q* # return recorded IC50 for input Cc1cn2cc(NC(=O)c3ccc(N4CCNCC4)c4oc(C)nc34)cc(F)c2n1
*A* < 0.1 µM

*Q* # return recorded IC50 for input CCNC1CCN(c2ccc(C(=O)Nc3cc(F)c4nc(C)sc4c3)c3nn(C)cc23)CC1
*A* < 0.1 µM

*Q* # return recorded IC50 for input Cc1cn2cc(NC(=O)c3ccc(C4CCNCC4)c4cc(C)oc34)cc(F)c2n1
*A* 0.1 to 1 µM

*Q* # return recorded IC50 for input Cn1cc2c(N3CCNCC3)ccc(C(=O)Nc3cc(F)c4nc(CO)cn4c3)c2n1
*A* 0.1 to 1 µM

*Q* # return recorded IC50 for input Cc1cc2nc(NC(=O)c3ccc(N4CCNCC4)c4cn(C)nc34)cc(C)n2n1
*A* > 10 µM

*Q* # return recorded IC50 for input CCn1cc2c(N3CCNCC3)ccc(C(=O)Nc3cn4cc(C)nc4c(Cl)n3)c2n1
*A* 1 to 10 µM

*Q* # return recorded IC50 for input CCn1cc2c(N3CCN[C@@H](C4CC4)C3)ccc(C(=O)Nc3cc(F)c4nc(C)cn4c3)c2n1
*A* 0.1 to 1 µM

*Q* # return recorded IC50 for input Cn1cc2cc(NC(=O)c3ccc(N4CCNCC4)c4cn(C)nc34)cc(F)c2n1 [Compound 319, hydrochloride]
*A* < 0.1 µM

*Q* # return recorded IC50 for input CCn1cc2c(N3CC[C@H](N(C)C)C3)ccc(C(=O)Nc3cc(F)c4nc(C)cn4c3)c2n1
*A* 0.1 to 1 µM

*Q* # return recorded IC50 for input Cc1cn2nc(-c3ccc(C(=O)NC4CCNCC4)c4oc(C)cc34)cc(F)c2n1
*A* 1 to 10 µM
